B1: library; a variant is named by its letters at N, in order (parent)
chain: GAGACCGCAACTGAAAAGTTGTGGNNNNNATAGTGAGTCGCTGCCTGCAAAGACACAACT

Variants of: B1
EXPERIMENT_NOTES: ligation selection enrichment (abundance after / before one-round selection) (fold); higher = more template-directed ligation activity
EXPERIMENTAL_SETUP: with T7Psub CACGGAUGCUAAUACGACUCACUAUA; MgCl2 25 mM; 42 °C; 4 h; pH 8.5
The threshold is inclusive: ligation selection enrichment of exactly 0.4 counts as t; values below receive f.

- CGGAC: t
- ATAAC: f
- CTTCA: t
- GGTCT: t
- TCATT: f
- AGACG: t
- GCTAG: f
- GATTC: f
- AGCAA: f
- GCGAC: t
- TACAT: t
- AACGC: f
- CCCCA: f
- AACCT: t
- TGCCA: f
- TTTAC: f
- CCGTC: f
- GGTAG: t
- CCGGT: f
- CGCAC: f
- AAAGA: f
- AAGAC: t
- TCTTT: f
- TTCTC: f
- TTTGG: t
- TAGGC: f
- AAACT: t
- CACTT: f
- CTCCG: f
- GATAT: t
- GAGTT: f
- TGGAC: t
- TCCTT: f
- AAGGT: f
- ACCGC: f
- GACAA: f
- GGAGA: f
- CTTTG: t
- GGACA: f
- GCGGG: f
- AATGG: t
- TGAGG: f
- TCCCC: f
- CGTTA: f
- ATAGC: f
